Target: UniProt Q62668
Sequence (Q62668 whole entry): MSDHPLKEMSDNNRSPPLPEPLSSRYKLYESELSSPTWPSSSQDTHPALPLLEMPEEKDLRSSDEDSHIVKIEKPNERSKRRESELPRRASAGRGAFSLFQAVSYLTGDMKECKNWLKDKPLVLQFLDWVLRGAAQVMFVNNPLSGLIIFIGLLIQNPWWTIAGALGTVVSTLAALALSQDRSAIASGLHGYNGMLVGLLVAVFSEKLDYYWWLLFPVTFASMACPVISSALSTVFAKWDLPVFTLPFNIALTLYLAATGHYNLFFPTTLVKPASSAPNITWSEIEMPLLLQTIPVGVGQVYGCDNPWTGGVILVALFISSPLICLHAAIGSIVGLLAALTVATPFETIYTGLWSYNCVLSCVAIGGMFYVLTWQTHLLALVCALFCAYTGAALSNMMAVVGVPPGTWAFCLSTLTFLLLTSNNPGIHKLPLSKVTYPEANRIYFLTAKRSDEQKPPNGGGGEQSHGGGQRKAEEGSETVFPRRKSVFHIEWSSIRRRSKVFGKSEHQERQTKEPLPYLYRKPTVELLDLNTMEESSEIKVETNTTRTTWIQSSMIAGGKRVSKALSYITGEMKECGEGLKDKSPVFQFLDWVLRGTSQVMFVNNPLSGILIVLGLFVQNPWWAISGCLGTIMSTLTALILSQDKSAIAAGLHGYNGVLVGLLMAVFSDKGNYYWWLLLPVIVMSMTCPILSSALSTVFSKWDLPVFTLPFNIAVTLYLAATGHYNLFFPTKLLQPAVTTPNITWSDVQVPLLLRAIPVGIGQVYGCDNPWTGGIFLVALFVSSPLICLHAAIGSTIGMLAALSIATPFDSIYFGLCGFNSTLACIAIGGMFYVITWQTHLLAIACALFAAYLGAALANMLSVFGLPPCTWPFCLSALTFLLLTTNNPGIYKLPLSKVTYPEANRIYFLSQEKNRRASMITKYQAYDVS
Assay: Inhibition of rat UT-A1 expressed in MDCK cells incubated for 15 mins by fluorescence plate reader assay
pIC50: −log10 of the molar value.
resultType: pIC50

>  <smilesStructure>
O=C(Nc1ccon1)c1cc(-c2ccccc2)nc2ccccc12

>  <resultType>
pIC50

>  <reportedResult>
5.70

$$$$
>  <smilesStructure>
O=S(=O)(Nc1ccc(Oc2nc3ccccc3n3cnnc23)cc1)c1ccccc1OC(F)(F)F

>  <resultType>
pIC50

>  <reportedResult>
4.70

$$$$
>  <smilesStructure>
COC(=O)c1sc2nc3c(cc2c1N)CN(Cc1ccccc1)CC3

>  <resultType>
pIC50

>  <reportedResult>
5.52

$$$$
>  <smilesStructure>
COc1ccc(Cl)cc1S(=O)(=O)Nc1cccc(O)c1

>  <resultType>
pIC50

>  <reportedResult>
5.22

$$$$
>  <smilesStructure>
COc1ccc(Cl)cc1S(=O)(=O)Nc1ccc(Oc2nc3ccccc3n3c(C(C)C)nnc23)cc1

>  <resultType>
pIC50

>  <reportedResult>
6.52

$$$$
>  <smilesStructure>
CCc1nnc2c(Oc3ccc(NS(=O)(=O)c4cc(Cl)ccc4OC)cc3)nc3cc(C)c(C)cc3n12

>  <resultType>
pIC50

>  <reportedResult>
5.85

$$$$

(1) CCOc1nnc2c(Oc3ccc(NS(=O)(=O)c4cc(C)ccc4OC)cc3)nc3ccccc3n12
(2) O=S(=O)(Nc1ccc(Oc2nc3ccccc3n3cnnc23)cc1)c1ccccc1Cl
Query block: // select label with min value of measured pIC50 from [ 1 , 2 ] Indicate which entry you chose by stating its label.
Result block: 2

---

Assay: Metabolic stability in Sprague-Dawley rat liver microsomes assessed as compound remaining at 5 uM preincubated for 5 mins followed by NADPH addition and measured at 15 mins by LC/MS analysis
Assay type: ADME, Microsome
Conditions: time 20 min, read-out: Stabilty
resultType: remaining at 0.25 h, 5 µM (%)

(I) CCCc1nnc2c(Oc3ccc(NS(=O)(=O)c4cc(Cl)ccc4OC)cc3)nc3ccccc3n12
(II) CCCc1nnc2c(Oc3ccc(NS(=O)(=O)c4cc(Cl)ccc4OC)cc3)nc3cc(C)c(C)cc3n12
Query block: // select label with min value of measured remaining at 0.25 h, 5 µM from [ I , II ] Indicate which entry you chose by stating its label.
Result block: II
(II: 25%, I: 40%)

---

Target: UniProt Q62668
Assay: Inhibition of rat UT-A1 expressed in MDCK cells incubated for 15 mins by fluorescence plate reader assay
pIC50: −log10 of the molar value.
resultType: pIC50

Here are 5 compounds together with their reported answers.
>  <smilesStructure>
CCCc1nnc2c(Oc3ccc(NS(=O)(=O)c4cc(Cl)ccc4OC)cc3)nc3ccccc3n12

>  <pIC50>
6.82

$$$$
>  <smilesStructure>
CCc1nnc2c(Oc3ccc(NS(=O)(=O)c4cc(C)ccc4OC)cc3)nc3ccccc3n12

>  <pIC50>
6.15

$$$$
>  <smilesStructure>
Cc1ccc(C)c(S(=O)(=O)Nc2ccc(Oc3nc4ccccc4n4cnnc34)cc2)c1

>  <pIC50>
5.82

$$$$
>  <smilesStructure>
COc1ccc(Cl)cc1S(=O)(=O)Nc1ccc2nc(SC)sc2c1

>  <pIC50>
5.30

$$$$
>  <smilesStructure>
CCCCc1nnc2c(Oc3ccc(NS(=O)(=O)c4cc(C)ccc4C)cc3)nc3ccccc3n12

>  <pIC50>
6.10

$$$$

(I) COc1ccc(Cl)cc1S(=O)(=O)Nc1ccc(Oc2nc3cc(C)c(C)cc3n3c(C(C)C)nnc23)cc1
(II) Cc1ccc(C)c(S(=O)(=O)Nc2ccc(Oc3nc4ccccc4n4c(C(C)C)nnc34)cc2)c1
Query block: Identify the entry with the larger pIC50. Options: I and II Indicate which entry you chose by stating its label.
Result block: II
